Assignment: determine reported pIC50 for the given compounds.
ASSAYED_SYSTEM: human TLR9 (Homo sapiens, UniProt Q9NR96)
Sequence (Q9NR96 26-1032): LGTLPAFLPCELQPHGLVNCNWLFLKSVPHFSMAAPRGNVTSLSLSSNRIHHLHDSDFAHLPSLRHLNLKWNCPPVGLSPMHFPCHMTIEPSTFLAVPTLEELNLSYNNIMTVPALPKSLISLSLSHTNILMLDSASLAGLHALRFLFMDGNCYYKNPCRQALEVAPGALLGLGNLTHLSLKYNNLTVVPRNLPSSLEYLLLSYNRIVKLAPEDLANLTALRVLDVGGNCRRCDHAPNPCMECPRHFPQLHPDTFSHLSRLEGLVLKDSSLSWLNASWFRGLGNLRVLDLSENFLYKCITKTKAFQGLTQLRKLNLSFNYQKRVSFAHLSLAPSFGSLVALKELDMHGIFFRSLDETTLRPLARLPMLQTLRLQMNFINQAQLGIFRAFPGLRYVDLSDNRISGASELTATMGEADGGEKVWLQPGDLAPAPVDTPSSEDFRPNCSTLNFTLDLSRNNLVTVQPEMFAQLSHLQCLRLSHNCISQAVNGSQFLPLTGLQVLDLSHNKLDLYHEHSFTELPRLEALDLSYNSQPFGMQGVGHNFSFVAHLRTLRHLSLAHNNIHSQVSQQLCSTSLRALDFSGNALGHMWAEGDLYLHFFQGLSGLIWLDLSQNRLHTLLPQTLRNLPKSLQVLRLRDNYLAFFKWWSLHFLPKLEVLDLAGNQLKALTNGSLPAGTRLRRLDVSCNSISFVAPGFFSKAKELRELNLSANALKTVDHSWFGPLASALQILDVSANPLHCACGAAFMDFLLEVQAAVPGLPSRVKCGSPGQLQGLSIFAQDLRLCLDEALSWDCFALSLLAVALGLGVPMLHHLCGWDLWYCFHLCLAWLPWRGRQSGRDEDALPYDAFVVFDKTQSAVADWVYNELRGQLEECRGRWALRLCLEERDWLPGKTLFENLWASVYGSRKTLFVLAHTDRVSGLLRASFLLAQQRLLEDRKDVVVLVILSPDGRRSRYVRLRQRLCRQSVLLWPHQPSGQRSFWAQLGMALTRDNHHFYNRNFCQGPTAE
EXPERIMENT_DESCRIPTION: TLR9 inhibition reporter assay (HEK-Blue cells, SEAP reporter, ODN2006 stimulation)
TEST_SETTINGS: HEK-Blue cells overexpressing human TLR9, ODN2006 5 nM
Bear in mind: pIC50 is minus log10 of a mol/L concentration; give just that figure.

Lookup: Item COc1ccc(-c2[nH]c3ccc(C4CCN(C(=O)CO)CC4)cc3c2C(C)C)cc1OC [Example 313] : provide pIC50
Found: 4.32

Lookup: Item COc1ccc(-c2[nH]c3ccc(C4CCN(Cc5cccn5C)CC4)cc3c2C)cc1OC [Example 29] : provide pIC50
Found: 6.10

Lookup: Item COc1ccc(-c2[nH]c3ccc(C4CCN(C(=O)CN5CCC[C@H](C(=O)NCCNC(C)=O)C5)CC4)cc3c2C(C)C)cc1OC [Example 295] : provide pIC50
Found: 5.27

Lookup: Item COc1ccc(-c2[nH]c3ccc(C4CCN(C5CC(C)(C)NC(C)(C)C5)CC4)cc3c2C)cc1OC [Example 48] : provide pIC50
Found: 6.36

Lookup: Item CCc1c(-c2ccc(OC)c(OC)c2)[nH]c2ccc(C3CCN(C4CCN(Cc5cc(C)n(C)n5)CC4)CC3)cc12 [Example 144] : provide pIC50
Found: 6.31

Lookup: Item CCc1c(-c2ccc(OC)c(OC)c2)[nH]c2ccc(C3CCN(C4CCN(CC)CC4)CC3)cc12 [Example 149] : provide pIC50
Found: 6.82

Lookup: Item COc1ccc(-c2[nH]c3ccc(C4CCNCC4)cc3c2C2CCOCC2)cc1OC [Example 389] : provide pIC50
Found: 5.78

Lookup: Item CCCCN1CCC(N2CCC(c3ccc4[nH]c(-c5ccc(OC)c(OC)c5)c(C)c4c3)CC2)CC1 [Example 82] : provide pIC50
Found: 6.78

Lookup: Item COc1ccc(-c2[nH]c3ccc(C4CCN(CC(=O)NC5CCN(C(C)C)CC5)CC4)cc3c2C(C)C)cc1OC [Example 273] : provide pIC50
Found: 6.25

Lookup: Item COc1ccc(-c2[nH]c3ccc(C4CCNCC4O)cc3c2C(C)C)cc1OC (single isomer, unassigned) [Example 317, 2,2,2-trifluoroacetate] : provide pIC50
Found: 5.33

Lookup: Item COc1ccc(-c2[nH]c3ccc(C4CCN(C(=O)CN(C)C)CC4)cc3c2CC(F)(F)F)cc1OC [Example 354] : provide pIC50
Found: 5.67

Lookup: Item COc1ccc(-c2[nH]c3ccc(C4CCN(C(=O)Cc5cnccn5)CC4)cc3c2CC(F)(F)F)cc1OC [Example 342] : provide pIC50
Found: 4.58

Lookup: Item COc1ccc(-c2[nH]c3ccc(C4CCN(C5CCN(CCC(F)(F)F)CC5)CC4)cc3c2C)cc1OC [Example 50] : provide pIC50
Found: 6.35

Lookup: Item CCOC(=O)N1CCC(N2CCC(c3ccc4[nH]c(-c5ccc(OC)c(OC)c5)c(C)c4c3)CC2)C1 (stereo not shown) [Example 13] : provide pIC50
Found: 5.97

Lookup: Item CCc1c(-c2ccc(OC)c(OC)c2)[nH]c2ccc(C3CCN(C4CCN(Cc5cnc(C)o5)CC4)CC3)cc12 [Example 124] : provide pIC50
Found: 5.89

Lookup: Item COc1ccc(-c2[nH]c3ccc(C4CCN(C5CCN(Cc6cncn6C)CC5)CC4)cc3c2C)cc1OC [Example 59] : provide pIC50
Found: 6.74

Lookup: Item COc1ccc(-c2[nH]c3ccc(C4CCN(C5CCCC(N)C5)CC4)cc3c2C)cc1OC (stereo not shown) [Example 105] : provide pIC50
Found: 6.41

Lookup: Item COc1ccc(-c2[nH]c3ccc(C4CCN(CC5CCCCN5C)CC4)cc3c2C)cc1OC (stereo not shown) [Example 49] : provide pIC50
Found: 6.26

Lookup: Item COc1ccc(-c2[nH]c3cc(C)c(C4CCNCC4)cc3c2C(C)C)cc1OC [Example 205] : provide pIC50
Found: 6.02

Lookup: Item COc1ccc(-c2[nH]c3ccc(C4CCN(C(=O)CN5CCC[C@@H](C(=O)N6CC7CNCC7C6)C5)CC4)cc3c2C(C)C)cc1OC (stereo partly shown) [Example 310] : provide pIC50
Found: 5.28

====

ASSAYED_SYSTEM: human TLR9 (Homo sapiens)
Sequence (Q9NR96 26-1032): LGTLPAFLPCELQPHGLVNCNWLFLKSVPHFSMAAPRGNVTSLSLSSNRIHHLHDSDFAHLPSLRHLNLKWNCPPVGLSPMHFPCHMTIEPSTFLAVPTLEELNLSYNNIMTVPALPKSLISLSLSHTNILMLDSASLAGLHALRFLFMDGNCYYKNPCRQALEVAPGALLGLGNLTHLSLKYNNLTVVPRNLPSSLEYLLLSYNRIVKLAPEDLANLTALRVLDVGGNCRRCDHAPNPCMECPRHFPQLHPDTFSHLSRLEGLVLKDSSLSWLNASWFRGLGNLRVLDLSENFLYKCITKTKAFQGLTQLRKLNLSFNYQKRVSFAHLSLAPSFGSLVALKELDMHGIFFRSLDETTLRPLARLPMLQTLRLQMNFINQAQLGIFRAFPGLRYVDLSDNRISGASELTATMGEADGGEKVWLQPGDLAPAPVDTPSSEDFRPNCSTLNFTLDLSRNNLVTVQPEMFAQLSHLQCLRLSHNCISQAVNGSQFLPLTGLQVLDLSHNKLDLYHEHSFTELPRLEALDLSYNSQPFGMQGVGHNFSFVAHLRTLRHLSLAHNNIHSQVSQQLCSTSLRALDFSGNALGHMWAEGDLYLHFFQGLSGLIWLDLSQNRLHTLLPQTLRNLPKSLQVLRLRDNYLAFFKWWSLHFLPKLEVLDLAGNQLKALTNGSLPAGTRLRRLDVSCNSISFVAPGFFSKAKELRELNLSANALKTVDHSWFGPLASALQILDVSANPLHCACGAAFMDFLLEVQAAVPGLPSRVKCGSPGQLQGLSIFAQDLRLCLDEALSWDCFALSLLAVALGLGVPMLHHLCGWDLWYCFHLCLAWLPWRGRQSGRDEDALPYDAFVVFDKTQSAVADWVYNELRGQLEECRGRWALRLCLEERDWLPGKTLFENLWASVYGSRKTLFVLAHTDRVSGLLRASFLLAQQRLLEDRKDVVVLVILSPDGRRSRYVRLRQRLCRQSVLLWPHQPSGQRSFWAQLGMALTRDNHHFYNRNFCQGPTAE
EXPERIMENT_DESCRIPTION: TLR9 inhibition reporter assay (HEK-Blue cells, SEAP reporter, ODN2006 stimulation)
TEST_SETTINGS: HEK-Blue cells overexpressing human TLR9, ODN2006 5 nM
MEASUREMENT_NAME: pIC50
Bear in mind: pIC50 is minus log10 of a mol/L concentration; give just that figure.

Lookup: Item COc1ccc(-c2[nH]c3ccc(C4CCN(Cc5ccncc5)CC4)cc3c2C)cc1OC : provide pIC50
Found: 5.76

Lookup: Item COc1ccc(-c2[nH]c3ccc(C4CCN(C(=O)CN5CCC[C@H](C(=O)N6CCN(C(C)C)CC6)C5)CC4)cc3c2C(C)C)cc1OC : provide pIC50
Found: 6.22

Lookup: Item COc1ccc(-c2[nH]c3ccc(C4CCN(C5CCNC5)CC4)cc3c2C)cc1OC (stereo not drawn) : provide pIC50
Found: 5.98

Lookup: Item COc1ccc(-c2[nH]c3ccc(C4CCN(CC(=O)N5CCN(C(C)C)CC5)CC4)cc3c2CC(F)(F)F)cc1OC : provide pIC50
Found: 5.94

Lookup: Item CCc1c(-c2ccc(OC)c(OC)c2)[nH]c2ccc(C3CCN(C(=O)CN(C)C(C)C)CC3)cc12 : provide pIC50
Found: 5.78

Lookup: Item CCc1c(-c2ccc(OC)c(OC)c2)[nH]c2ccc(C3CCN(C4CCN(C)CC4)CC3)cc12 : provide pIC50
Found: 5.63
